- experiment description: gradient 5% acetonitrile 3 min, to 50% in 2 min, to 85% in 15 min, held 3 min, 100 µL/min
- measurement parameters: column: Zorbax Extend-C18 2.1 x 50 mm; eluents: water / acetonitrile, 0.1% formic acid
Recorded RP-LC retention time for the following compounds
Enter your answer as a number in s; do not include the unit.

Some entries whose results are on file:
Query block: So what's the measured RP-LC retention time for this one? `CCOC(=O)C(=O)Nc1ccc(SCc2nnc(-c3ccccc3C)o2)cc1`
Result block: 950

Query block: For the compound shown here, `COc1ccc(NC(=O)c2cccc(F)c2)c2ccccc12` , give the reported RP-LC retention time.
Result block: 852

Query block: Given the entry `Cc1ccc(N2CCN(C(=O)c3cn(-c4ccc(NC(=O)C5CC5)cn4)cn3)CC2)c(C)c1` , report its measured RP-LC retention time.
Result block: 913

***
Query block: Report RP-LC retention time for `Cc1cccn2c(Nc3ccc4c(c3)OCCO4)c(-c3ccc(Cl)cc3)nc12` please.
Result block: 747

Query block: Name the reported RP-LC retention time value associated with the compound `C#CCCNC(=O)c1cccn(C)c1=O`
Result block: 572

Query block: Fill in the blank: the reported RP-LC retention time of `Cc1ccc(C)c(S(=O)(=O)Nc2ccc3scnc3c2)c1` is ____.
Result block: 776

Query block: # lookup: RP-LC retention time of `Cc1cnc(CCNS(=O)(=O)c2ccc(C#N)cc2)n1C1CC1`
Result block: 960

Query block: Fill in the blank: the reported RP-LC retention time of `CCCNS(=O)(=O)c1cc(-c2nc(C)cs2)n(CC(=O)N2CCCCC2)c1` is ____.
Result block: 869

Query block: Name the recorded RP-LC retention time for `Cc1nc2c(C(=O)NCCN3CCOCC3)cnn2c(C)c1Cc1ccccc1Cl` .
Result block: 678

Query block: Record request: RP-LC retention time value, item `Cc1cnc(C2CCC2)n1CCNC(=O)c1nccn1C`
Result block: 556

Query block: Given the entry `O=C(Cn1ccnc1-c1ccnc(N2CCSCC2)c1)NCc1ccc(Cl)cc1` , report its measured RP-LC retention time.
Result block: 674

Query block: Could you share which RP-LC retention time value was measured for O=C(Nc1ccccc1)C1CCCN(c2nccnc2Sc2ccccc2)C1 (stereo unspecified) ?
Result block: 1060

Query block: # get_value(readout='RP-LC retention time', item= `CCN(CC)c1ccc(C(=O)N2CCc3nc[nH]c3C2)cc1` )
Result block: 550

Query block: What RP-LC retention time value was documented for this compound, CC1Oc2ccc(S(=O)(=O)N3CCC(C(=O)NCc4ccc(F)cc4)CC3)cc2NC1=O (stereo unspecified) ?
Result block: 812

Query block: Would you kindly share the measured RP-LC retention time for Cc1noc(-c2ccc(N3CCCC(C(=O)NC(C)c4ccco4)C3)nc2)n1 (stereo unspecified) ?
Result block: 746

Query block: # query: RP-LC retention time of entry `O=C(Cc1cccn1-c1ccc(F)cc1)N1CCOCC1`
Result block: 760

Query block: Tell me the measured RP-LC retention time of `O=C(NCCc1c[nH]c2ccccc12)c1cc(S(=O)(=O)N2CCCCC2)ccc1Cl` , please.
Result block: 966

Query block: Value lookup for RP-LC retention time; key = Cc1nc(C)c(C(=O)NC2CCN(c3ccc(=O)n(CCOc4ccccc4)n3)C2)s1 (stereo unspecified)
Result block: 703

Query block: Any idea what its RP-LC retention time is? The compound is `COc1ccc(Cl)cc1C(=O)N1CCN=C1SCc1cccnc1`
Result block: 578

Query block: Which measured RP-LC retention time value corresponds to CCC(=O)N1CCC(N2CC(OCC3CC3)C23CCOCC3)CC1 (stereo unspecified) ?
Result block: 577

Query block: Please look up its RP-LC retention time: O=S(=O)(c1cccc(F)c1)N1CCC(Cc2nncn2-c2ccccc2)C1 (stereo unspecified)
Result block: 752

Query block: Returns the measured RP-LC retention time for the input compound. Input: Cc1cc2c(N3CCCC(C(=O)NCc4ccccc4C(F)(F)F)C3)nccc2s1 (stereo unspecified)
Result block: 738

Query block: Reported RP-LC retention time for Cc1cc2nc(C(F)(F)F)c(=O)n(C(C)C(=O)NCc3ccco3)c2cc1C (stereo unspecified) : what is it?
Result block: 756

Query block: So what does the record say about RP-LC retention time for `COc1ccc2c(CCNC(=O)Nc3ccccc3)c[nH]c2c1` ?
Result block: 791

Query block: I have this compound here, CC(=O)c1ccc(N2C(=O)Cn3cccc3C2C(=O)NC2CCC(C)CC2)cc1 (stereo unspecified) , and I need its recorded RP-LC retention time.
Result block: 869

Query block: Name the recorded RP-LC retention time for CCOC(=O)C1=C(CN2CCC(C(=O)OCC)CC2)NC(=O)NC1c1ccc(Cl)cc1 (stereo unspecified) .
Result block: 673

Query block: Recorded RP-LC retention time of `C=CCNC(=O)c1cn(CCC)nc1S(=O)(=O)N1CCN(c2ccccc2OCC)CC1` , please.
Result block: 1030
